Value source: ChEMBL document CHEMBL2016441

- tested_target: Bile salt export pump (Homo sapiens, UniProt O95342, E297G)
- Sequence (O95342 whole entry E297G): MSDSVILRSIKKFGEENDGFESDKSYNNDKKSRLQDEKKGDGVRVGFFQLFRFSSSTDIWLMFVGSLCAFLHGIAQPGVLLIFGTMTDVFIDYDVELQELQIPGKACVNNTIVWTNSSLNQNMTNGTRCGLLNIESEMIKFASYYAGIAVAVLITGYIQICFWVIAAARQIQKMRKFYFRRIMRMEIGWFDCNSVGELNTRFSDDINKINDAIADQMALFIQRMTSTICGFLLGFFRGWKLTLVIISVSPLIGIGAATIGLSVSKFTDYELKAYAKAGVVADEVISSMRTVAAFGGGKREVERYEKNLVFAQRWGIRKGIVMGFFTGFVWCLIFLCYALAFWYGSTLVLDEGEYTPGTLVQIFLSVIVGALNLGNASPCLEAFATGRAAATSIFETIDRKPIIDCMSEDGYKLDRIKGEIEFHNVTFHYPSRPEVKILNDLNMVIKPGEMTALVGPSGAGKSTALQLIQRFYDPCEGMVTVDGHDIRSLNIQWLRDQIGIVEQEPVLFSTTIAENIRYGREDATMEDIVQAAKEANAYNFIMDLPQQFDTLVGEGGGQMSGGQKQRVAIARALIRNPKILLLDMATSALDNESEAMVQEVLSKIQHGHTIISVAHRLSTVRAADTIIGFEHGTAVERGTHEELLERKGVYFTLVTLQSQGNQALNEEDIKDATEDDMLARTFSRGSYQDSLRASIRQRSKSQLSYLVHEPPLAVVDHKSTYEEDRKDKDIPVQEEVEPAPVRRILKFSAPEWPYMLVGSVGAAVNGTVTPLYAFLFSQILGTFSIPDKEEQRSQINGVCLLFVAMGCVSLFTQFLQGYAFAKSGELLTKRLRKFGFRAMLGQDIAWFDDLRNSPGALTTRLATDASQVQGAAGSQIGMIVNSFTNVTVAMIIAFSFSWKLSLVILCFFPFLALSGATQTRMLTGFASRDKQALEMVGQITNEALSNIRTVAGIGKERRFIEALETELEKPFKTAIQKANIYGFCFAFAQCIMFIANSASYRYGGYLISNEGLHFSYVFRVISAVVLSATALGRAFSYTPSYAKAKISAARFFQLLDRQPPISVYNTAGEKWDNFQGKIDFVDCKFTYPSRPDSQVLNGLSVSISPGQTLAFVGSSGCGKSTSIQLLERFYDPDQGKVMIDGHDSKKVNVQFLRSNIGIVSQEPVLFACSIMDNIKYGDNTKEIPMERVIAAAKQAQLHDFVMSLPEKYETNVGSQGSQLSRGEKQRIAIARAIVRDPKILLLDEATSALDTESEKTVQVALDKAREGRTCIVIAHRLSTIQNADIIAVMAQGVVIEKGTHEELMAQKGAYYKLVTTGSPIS
- test_name: Restoration of human BSEP E297G mutant trafficking to cell membrane in MDCK2 cells co-expressing NTCP assessed as accumulation of [3H]taurocholate at 10 uM preincubated for 24 hrs prior incubation with [3H]taurocholate measured after 2 hrs by liquid scintillation counting
- Type: cell membranes
- conditions: mdck2, 2 h
Classify as follows. Reported Activity greater than or equal to 70%: y. Reported Activity below: n.

{"columns": ["compound", "tested_target", "group_label"],
 "data": [
  ["CC(C)c1onc(-c2c(Cl)cccc2Cl)c1COc1ccc(C(=O)N(Cc2ccccc2)c2cccc(C(=O)O)c2)c(Cl)c1", "Bile salt export pump (Homo sapiens, UniProt O95342, E297G)", "n"]
]}

Kindly review the next compound as well.
Q: Determine whether measured Activity meets or exceeds 70% for C[C@H](CCC(=O)O)[C@H]1CC[C@H]2[C@@H]3[C@@H](O)C[C@@H]4C[C@H](O)CC[C@]4(C)[C@H]3CC[C@]12C [URSODIOL]
Result: y
